# assay_remarks: Human HepG2 cell viability assay in 384 well format
# Assay type: toxicity, cell-based
# Parameters: dose 125 nL, time 70.5 hour; concentration not given beside the values
# conditions: HepG2 cells, read-out: Inhibition

| compound | measure_unit | cytotoxicity at 70.5 h |
| --- | --- | --- |
| CCC(C)N(Cc1sccc1C)C(=O)c1ccc2cccnc2n1 (stereo unspecified) | % | -11.7 |
| CC(C)C(NC(=O)c1cnc(N2CCOCC2)nc1)c1cccs1 (stereo unspecified) | % | 7.3 |
| COc1cccc(C2CCCN2C(=O)c2cc3c([nH]c2=O)CCC3)c1 (stereo unspecified) | % | -2.15 |
| Cc1cc(C)c2c(N3CCN(CCN4CCOCC4)CC3)ncnc2n1 | % | 16.3 |
| Cc1nc(C(C)C)sc1C(=O)NCC(C)(C)N1CCOCC1 | % | -8.1 |
| COc1ccc(Cl)cc1Nc1nc(N)c(C(C)=O)s1 | % | -19.7 |

* * *

# assay_remarks: Human HepG2 cell viability assay in 384 well format
# Type: toxicity, cell-based
# Set-up: dose 125 nL, time 70.5 hour; concentration not given beside the values
# conditions: HepG2 cells, read-out: Inhibition

| compound | cytotoxicity at 70.5 h (%) |
| --- | --- |
| CCn1nc2c(cc1=O)CN(CC(=O)Nc1nc(C)c(C)s1)CC2 | -13.9 |
| COCCNC(=O)Cn1cc2c(n1)c(C)nn2C(C)C | -5.84 |
| Cn1cc(Cl)cc1C(=O)N1CCC2(CCCN(CC3CCC3)C2=O)C1 (configuration not stated) | 18.1 |
| Cc1ccc(NC(=O)N2CCCN(C(N)=O)CC2)s1 | 7.8 |
| O=C(c1ccccc1O)N1CCn2c(nnc2C(F)(F)F)C1 | -1.13 |
| Cc1noc(C2CCN(C(=O)CCc3nccs3)CC2)n1 | 21.5 |
| CC(C)(C)OC(=O)N1CCN(C(=O)CCn2cccn2)CC1 | -4.56 |
| Cc1ccc(C(=O)Nc2nnc(C(C)C)s2)c(-n2cnnn2)c1C | -5.81 |
| COc1cc(NCc2ccccc2-n2cncn2)nc(N)n1 | -6.05 |
| CCN(C(=O)NCCc1cccc(F)c1F)C(C)CS(C)(=O)=O (configuration not stated) | -5.85 |
| Cc1nc(NC(=O)C(C)n2ncc(Br)c2C)sc1C (configuration not stated) | 1.11 |
| COc1cccc(C(=O)NCC(O)c2cccs2)c1 (configuration not stated) | -0.864 |

* * *

Parameter cytotoxicity at 70.5 h: see the listing below.
# assay_remarks: Human HepG2 cell viability assay in 384 well format
# Format: toxicity, cell-based
# Design: dose 125 nL, time 70.5 hour; concentration not given beside the values
# conditions: HepG2 cells, read-out: Inhibition

| compound | measure_unit | cytotoxicity at 70.5 h |
| --- | --- | --- |
| Cc1ccc(N2CCCC(NCC(=O)Nc3cc(C)nn3C)C2)nn1 (stereo unspecified) | % | -4.79 |
| COCCn1cc(CC(=O)Nc2nc3c(s2)CCC3)c2ccccc21 | % | -6.21 |
| CN(C)CC1(O)CCCN(C(=O)CCn2cc(Cl)cn2)C1 (stereo unspecified) | % | 26.8 |
| Cn1cc(CN2CCC3(CCCN3Cc3cccnc3)CC2)cn1 | % | -3.83 |
| COc1cc2nc(C)n(CC(=O)NCC(C)C)c(=O)c2cc1OC | % | -15.9 |
| Cc1nn(C)cc1C1CC(=O)Nc2c1cnn2C (stereo unspecified) | % | -5.3 |

* * *

# assay_remarks: Human HepG2 cell viability assay in 384 well format
# Type: toxicity, cell-based
# Parameters: dose 125 nL, time 70.5 hour; concentration not given beside the values
# conditions: HepG2 cells, read-out: Inhibition
Parameter cytotoxicity at 70.5 h: see the listing below.
measure_name: cytotoxicity at 70.5 h (%)

| compound | measure_name | result_value |
| --- | --- | --- |
| CC(C)COc1cncc(N2CCCN(CC(F)(F)F)CC2)n1 | cytotoxicity at 70.5 h | -5.33 |
| O=C(CN1C(=O)CCC1=O)N1CCOCC1 | cytotoxicity at 70.5 h | 48.6 |
| O=C(Cc1ccsc1)N1CCN(CCOc2ccccc2)CC1 | cytotoxicity at 70.5 h | -5.67 |
| Cc1ccc(CCNC(=O)NCCCC(N)=O)c(C)c1 | cytotoxicity at 70.5 h | 1.66 |
| COc1ccc(C)cc1NC(=O)Nc1cnc(N2CCOCC2)nc1 | cytotoxicity at 70.5 h | -0.928 |
| COCC(=O)N1CCN(CCn2cccn2)c2nc(C)ccc2C1 | cytotoxicity at 70.5 h | 0.00132 |
| COc1ccc2c(c1)OCC(CNC(=O)c1ccc(=O)n(C)c1)C2 (centres undefined) | cytotoxicity at 70.5 h | -10 |
| CC[C@@H](c1ccccc1)n1c(CCN)n[nH]c1=O | cytotoxicity at 70.5 h | -5.25 |
| COc1ncnc(N(C)C)c1NC(=O)Cc1c[nH]c2ccc(F)cc12 | cytotoxicity at 70.5 h | -7.3 |
| Cc1nn(CC(C)C)c(N(C)C)c1CNCc1ccc(CO)c(F)c1 | cytotoxicity at 70.5 h | 1.46 |
| Cc1nnc2n1CCN(CCOc1cccc(C#N)c1)C2 | cytotoxicity at 70.5 h | -4.21 |
| CC(C)n1nc2c(cc1=O)CN(c1ncnc3ccccc13)CC2 | cytotoxicity at 70.5 h | -1.82 |
| CCCc1cc(C(=O)N2Cc3cnc(C(C)(C)C)nc3C2)ccn1 | cytotoxicity at 70.5 h | 0.0745 |
| O=C(Nc1ccccc1)C1CN(Cc2ccsc2)CC12CCOCC2 (centres undefined) | cytotoxicity at 70.5 h | -18.9 |
| COCc1cnc2n1CCN(C(=O)c1cc3cc(Cl)ccc3o1)C2C (centres undefined) | cytotoxicity at 70.5 h | 18.3 |
| COc1ncccc1CNC(=O)c1ccc(C)[nH]c1=O | cytotoxicity at 70.5 h | 12.6 |
| CN(Cc1nnc(C2CC2)n1C)C1CCN(CCc2ccncc2)C1 (centres undefined) | cytotoxicity at 70.5 h | -6 |
| NC(=O)c1ccc(N2CCCCC2)c(NC(=O)c2cc(F)ccc2F)c1 | cytotoxicity at 70.5 h | -4.2 |
| O=C(NCCc1cnccn1)c1ccc(S(=O)(=O)NC2CCC2)cc1 | cytotoxicity at 70.5 h | 18.7 |
| c1cncc(C[C@H]2[C@H](N3CCOCC3)CCN2Cc2nccs2)c1 | cytotoxicity at 70.5 h | -3.76 |
| CCC1c2ccccc2CCN1C(=O)c1ccc(OC)nn1 (centres undefined) | cytotoxicity at 70.5 h | -0.324 |
| CC(C(=O)N1CCCC1)S(=O)(=O)Cc1nc(C(C)(C)C)no1 (centres undefined) | cytotoxicity at 70.5 h | -8.31 |
| C[C@@H]1CN(S(=O)(=O)N2CCCC2)CC[C@@]1(O)C1CCOCC1 | cytotoxicity at 70.5 h | -14 |
| CC(Cn1cccn1)NC(=O)NCCc1cccs1 (centres undefined) | cytotoxicity at 70.5 h | -6.38 |

* * *

# assay_remarks: Human HepG2 cell viability assay in 384 well format
# Format: toxicity, cell-based
# Design: dose 125 nL, time 70.5 hour; concentration not given beside the values
# conditions: HepG2 cells, read-out: Inhibition
Parameter cytotoxicity at 70.5 h: see the listing below.

| compound | cytotoxicity at 70.5 h (%) |
| --- | --- |
| Cn1cnnc1SC1CCc2ccccc2NC1=O (configuration not stated) | -20.5 |
| CCN1Cc2cc(F)ccc2N(C(C)=O)CCC1=O | -3.82 |
| COCc1nn(C(C)C)c2c1CCN(Cc1nccs1)C2 | 12.2 |
| Cc1cc(N2CCCC2c2cncc(N(C)C)n2)ncn1 (configuration not stated) | 1.3 |
| Cc1c(CNC(=O)C2CCCCCN2C)oc2ccccc12 (configuration not stated) | -0.804 |
| NCC(=O)N1CCCC(O)(CN2CCN(c3ccccc3)CC2)CC1 (configuration not stated) | 4.71 |
| COCC(=O)N[C@H](C)c1onc(-c2ccc(Cl)cc2)c1C(=O)O | -1.96 |
| CC(CNS(N)(=O)=O)Oc1cccc(Cl)c1 (configuration not stated) | -0.0153 |
| Clc1cccc(C(CNCc2ccccn2)N2CCOCC2)c1 (configuration not stated) | 48.6 |
| COCCC(=O)N1CCN(CC2CC2)c2ccccc21 | -3.57 |
| O=C(c1ccc2c(c1)OCO2)N1CCC(C(=O)O)(c2ccccc2)CC1 | -11.1 |
| CCOCCCn1c(NC(=O)c2cnc(C)cn2)nc2ccccc21 | -5.61 |

* * *

# assay_remarks: Human HepG2 cell viability assay in 384 well format
# Assay type: toxicity, cell-based
# Set-up: dose 125 nL, time 70.5 hour; concentration not given beside the values
# conditions: HepG2 cells, read-out: Inhibition
Parameter cytotoxicity at 70.5 h: see the listing below.
measure_name: cytotoxicity at 70.5 h (%)

| compound | measure_unit | result_value |
| --- | --- | --- |
| Cc1ccc(N2C[C@@H]3CN(Cc4csc(C)n4)CCO[C@@H]3C2)nn1 | % | -2.48 |
| Cc1ccc(CN2Cc3nnn(C)c3C(COCC(=O)N(C)C)C2)s1 (configuration not stated) | % | -8.72 |
| CC(=O)c1ccc(F)cc1-c1cc(NCCO)nc2[nH]ccc12 | % | -0.208 |
| NC(=O)c1cccnc1N1C[C@@H]2CC[C@H](C1)N(Cc1ccccn1)C2=O | % | 5.12 |
| NCCO[C@H]1C[C@@H](O)C12CCN(C1Cc3ccccc3C1)CC2 | % | 34.2 |
| CCc1nc2c(c(NC3CC3)n1)CCN(C(=O)Cc1nonc1C)CC2 | % | -8.76 |
| CCS(=O)(=O)N1CCC(c2nnc(Cn3cccn3)n2C2CC2)CC1 | % | -0.619 |
| Cc1noc([C@@H]2C[C@H]3CN(C(=O)C4CCN(C)CC4)C[C@H]3O2)n1 | % | -11.3 |
| CN1CCC(N(Cc2ccccc2)C(=O)c2nccn3ccnc23)CC1 | % | -7.08 |
| Cc1noc(CCCC(=O)NCC(c2ccco2)N2CCCCC2)n1 (configuration not stated) | % | -3 |
| CCc1noc(CN(Cc2cccs2)CC2CCCO2)n1 (configuration not stated) | % | -1.65 |
| CN(C)c1ccc(CCCNC(=O)NCC(O)c2ccsc2)cc1 (configuration not stated) | % | -3.63 |
| CN(C)CC(Nc1nc(N)nc2c1CCNCC2)c1ccccc1 (configuration not stated) | % | -18.8 |
| Cc1cc(C#N)ccc1S(=O)(=O)NCc1cnc(N(C)C)n1C | % | -5.78 |
| COCCN1CCCC(c2ncc(C(=O)N(C)C)c(C)n2)C1 (configuration not stated) | % | -1.17 |
| Cc1ccc(CN(CCCn2ccnc2)Cc2cccs2)s1 | % | 18.6 |
| Brc1csc(-c2noc(C3COCCO3)n2)c1 (configuration not stated) | % | 0.61 |
| Cc1nn(C)c(N2CCCN(C)CC2)c1CNC(=O)CC(C)(C)C | % | 3.8 |
| O=C(NCc1ccc(Br)cc1F)C1(O)CCSCC1 | % | -2.81 |
| CCOc1ccccc1NC(=O)Nc1cc(N2CCCC2)ncn1 | % | 1.9 |
| COc1ccccc1CNC(=O)CNc1ccccc1C(C)=O | % | -1.58 |
| CCC[C@@H]1CN(Cc2ccccc2SC)C[C@H]1NC(C)=O | % | -5.44 |
| Cn1cccc1CNCC1CCCn2cc(C(C)(C)C)nc21 (configuration not stated) | % | 5.68 |
| Cc1oc(C)c(C(=O)NS(=O)(=O)c2ccc3c(c2)OCCCO3)c1C | % | -27.5 |
| COC(=O)c1oc(CNC(C)(C)c2ccc3c(c2)OCCO3)cc1C | % | 20.9 |
| O=C(c1cccc(-n2cnnc2)c1)N1C[C@@H](O)[C@H](N2CCOCC2)C1 | % | -1.32 |
| Cc1cc(CN2CCN(C(C)c3nc(C(C)C)no3)CC2)no1 (configuration not stated) | % | -7.52 |
| O=C(Cn1cnc(-c2ccccc2)cc1=O)Nc1ccncc1 | % | -9.96 |
| Cc1ccccc1C(=O)N1C[C@@H]2COC[C@]2(COCc2cccnc2)C1 | % | 2.96 |
| CN(C(=O)Cc1ccc2c(c1)OCCO2)C1CCCC1 | % | 19.8 |
| O=c1oc2ccccc2n1CCN(CC1CCOC1)C1CC1 (configuration not stated) | % | -11.1 |
| Cc1cc(N2CCN(Cc3ccsc3)C(CCO)C2)nc(N)n1 (configuration not stated) | % | -6.22 |
| CC(C)C(=O)N1CCC2(CC1)COCCN2Cc1ccc(F)cc1 | % | -2.33 |
| O=C1CC(c2cccnc2)c2c(c(C(=O)O)cn2-c2ccc(Cl)cc2)N1 (configuration not stated) | % | -7.08 |
| NC(=O)c1c(NC(=O)CCC(=O)O)sc2c1CCc1ccccc1-2 | % | -9.16 |
| Cc1cc(C(=O)N2CCCC(C)C2)ccc1NCc1nc(C(C)C)no1 (configuration not stated) | % | -9.64 |
| COc1cccc(Cc2nnc(SCCS(C)(=O)=O)o2)c1 | % | -8.26 |
| CC(=O)NCCCNCc1cc(F)ccc1Br | % | 15 |
| O=C(N[C@@H]1CNCCC[C@H]1O)c1ccc(OCCN2CCOCC2)cc1 | % | 1.5 |
| CCSCCn1cc(-c2nccs2)nn1 | % | -9.08 |
| Cc1cc(NC(=O)NCc2nccn2C)ccc1OC(C)C | % | -6.18 |
| CCN(CC)C(=O)CNC(=O)N1CCC(c2ccccc2)C1 (configuration not stated) | % | -6.54 |
| CCCn1nccc1-c1nccnc1CC1CCN(C(C)=O)C1 (configuration not stated) | % | -2.05 |
| CN1CCC(N(Cc2ccco2)S(=O)(=O)c2ccc(Cl)cc2)CC1 | % | -3.29 |
| OC1=C2C(=Nc3n[nH]c(O)c3C2c2ccccc2Cl)CCC1 (configuration not stated) | % | 9.03 |
| Cc1noc(C(C)C)c1C(=O)NCc1cccc(N(C)C)c1 | % | 12.6 |
| CCC(CN1CCCC1)n1cncc1-c1cnn(Cc2ccccc2)c1 (configuration not stated) | % | -4.48 |
